Recorded values, source patent US4886817A.

Experiment: Acute toxicity (LD50)
Conditions: mouse, in vivo; oral, male Std/ddY mice, estimated 7 days after administration
Source text: In addition, Compound (I) and a salt thereof may have also an inhibitory effect on gastric juice secretion and may be used for therapy and prophylaxy of peptic ulcer. […] Further, the compound of the present invention is low in toxicity and has high safety as pharmaceuticals.
quantity: LD50 at 168 h

Input line: Field request: LD50 at 168 h | item: O=C1N(C/C=C/c2ccccc2)CCN1c1cccnc1
Output line: > 1500 mg/kg
